target: Gal(b1-3)[Fuc(a1-4)]GlcNAc(b1-2)Man; assay: glycan array binding signal (z-score within array); higher = stronger binding; settings: glycan notation: IUPAC condensed, linker removed
Only a selection was taken, and the strongest signals are over-represented in it overall.
glycan array binding signal (z-score) values, listed per item
Reply with the value as a number alone.

Worked examples follow.
[
  {
    "binder": "Arath Fbox LD (Arabidopsis thaliana) (protein) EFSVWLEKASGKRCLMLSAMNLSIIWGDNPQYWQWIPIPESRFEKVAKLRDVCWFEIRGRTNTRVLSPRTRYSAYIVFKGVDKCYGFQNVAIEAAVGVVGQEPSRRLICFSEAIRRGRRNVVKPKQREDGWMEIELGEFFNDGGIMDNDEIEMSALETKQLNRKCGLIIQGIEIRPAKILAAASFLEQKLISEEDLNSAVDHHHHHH",
    "glycan array binding signal (z-score)": 4.02
  },
  {
    "binder": "CC1G-11630 (Coprinopsis cinerea), A8P462 (protein) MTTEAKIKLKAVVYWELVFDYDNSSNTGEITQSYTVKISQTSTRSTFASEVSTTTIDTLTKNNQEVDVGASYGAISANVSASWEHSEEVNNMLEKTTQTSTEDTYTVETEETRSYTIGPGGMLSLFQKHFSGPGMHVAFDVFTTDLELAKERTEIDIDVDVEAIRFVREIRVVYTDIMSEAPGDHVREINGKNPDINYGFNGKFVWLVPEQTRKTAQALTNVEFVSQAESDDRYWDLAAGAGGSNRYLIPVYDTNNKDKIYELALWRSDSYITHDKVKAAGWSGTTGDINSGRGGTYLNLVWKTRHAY",
    "glycan array binding signal (z-score)": 2.23
  },
  {
    "binder": "EULS2 M3 (Oryza sativa) (protein) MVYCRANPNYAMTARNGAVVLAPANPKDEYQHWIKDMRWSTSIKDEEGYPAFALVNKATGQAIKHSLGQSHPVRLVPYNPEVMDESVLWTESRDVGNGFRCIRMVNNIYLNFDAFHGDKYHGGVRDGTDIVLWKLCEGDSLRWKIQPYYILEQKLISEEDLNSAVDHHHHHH",
    "glycan array binding signal (z-score)": 1.17
  },
  {
    "binder": "Clec2 (Mus musculus), Q9JL99 (protein) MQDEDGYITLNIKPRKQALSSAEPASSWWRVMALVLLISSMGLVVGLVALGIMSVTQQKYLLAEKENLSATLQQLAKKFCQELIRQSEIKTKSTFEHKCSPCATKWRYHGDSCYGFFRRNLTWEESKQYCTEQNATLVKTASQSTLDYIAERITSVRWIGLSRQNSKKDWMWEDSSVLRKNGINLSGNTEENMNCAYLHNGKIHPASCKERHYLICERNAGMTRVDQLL",
    "glycan array binding signal (z-score)": 3.5
  },
  {
    "binder": "YASPKCFRYPNGVLACT [Odorranalectin (Odorrana grahami), B3TFE9_RANGR]",
    "glycan array binding signal (z-score)": 3.92
  }
]

Kindly review the next binder as well.
So what's the measured glycan array binding signal (z-score) for this one? Tamarinin (protein) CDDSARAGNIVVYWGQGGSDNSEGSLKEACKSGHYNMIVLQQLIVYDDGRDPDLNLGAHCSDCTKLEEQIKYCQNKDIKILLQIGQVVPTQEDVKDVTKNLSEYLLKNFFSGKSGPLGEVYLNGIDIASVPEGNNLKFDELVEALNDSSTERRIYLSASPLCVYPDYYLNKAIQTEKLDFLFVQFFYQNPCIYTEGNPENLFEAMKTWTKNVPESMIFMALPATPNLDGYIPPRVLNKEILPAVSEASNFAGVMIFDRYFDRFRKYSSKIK 1.45
